Measured IC50, listed per entry for reference.
Test system: NCI-H1373 cells
Assay: Cell proliferation inhibition assay (CTG method)
Format: cell-based, human
Conditions: Homo sapiens, NCI-H1373, 144 h, NCI-H1373 cells, 6 days incubation, CTG method; read-out: IC50 (nM) for NCI-H1373 cell viability
measured-endpoint: IC50

compound=C[C@@H](COCCC(=O)N1CCN2C(=O)c3ncc(C(F)(F)F)cc3OC[C@@H]2C1)Nc1cn[nH]c(=O)c1C(F)(F)F result="> 5000 nM"
compound=C[C@@H](COCCC(=O)N1CCN2c3nc(N)c(C(F)(F)F)cc3COC[C@H]2C1)Nc1cn[nH]c(=O)c1C(F)(F)F result="> 5000 nM"
compound="C[C@@H](COCCC(=O)N1CCN2c3ncc(C(F)(F)F)cc3C(F)(F)C[C@@H]2C1)Nc1cn[nH]c(=O)c1C(F)(F)F (single isomer, unassigned)" result="500 to 5000 nM"
compound="C[C@@H](COCCC(=O)N1CCN2c3ncc(C(F)(F)F)cc3CCC2C1)Nc1cn[nH]c(=O)c1C(F)(F)F (stereo partly shown)" result="< 100 nM"
compound="CC(COCC(O)C(=O)N1CCN2c3ncc(C(F)(F)F)cc3CCC2C1)Nc1cn[nH]c(=O)c1C(F)(F)F (stereo not shown)" result="< 100 nM"
compound=C[C@@H](COCCC(=O)N1CCN2C(=O)c3ncc(C(F)(F)F)cc3OC[C@H]2C1)Nc1cn[nH]c(=O)c1C(F)(F)F result="> 5000 nM"
compound=C[C@@H]1CN2c3ncc(C(F)(F)F)cc3COC[C@H]2CN1C(=O)CCOC[C@H](C)Nc1cn[nH]c(=O)c1C(F)(F)F result="100 to 500 nM"
compound=C[C@@H](COCCC(=O)N1CCN2c3ccc(C(F)(F)F)cc3N(C)C(=O)[C@@H]2C1)Nc1cn[nH]c(=O)c1C(F)(F)F result="> 5000 nM"
compound=C[C@@H](COCCC(=O)N1CCN2c3ncc(C(F)(F)F)cc3COC[C@H]2C1)Oc1cn[nH]c(=O)c1C(F)(F)F result="< 100 nM"
compound="CC(COCC(O)C(=O)N1CCN2c3ncc(C(F)(F)F)cc3COCC2C1)Nc1cn[nH]c(=O)c1C(F)(F)F (single isomer, unassigned)" result="< 100 nM"
compound=C[C@@H](COCCC(=O)N1CCN2c3ncc(C(F)(F)F)cc3CS(=O)(=O)C[C@H]2C1)Nc1cn[nH]c(=O)c1C(F)(F)F result="500 to 5000 nM"
compound=C[C@@H](COCCC(=O)N1CCN2c3ncc(C(F)(F)F)c(C#N)c3OC[C@H]2C1)Nc1cn[nH]c(=O)c1C(F)(F)F result="100 to 500 nM"
compound=C[C@@H](COCCC(=O)N1CCN2c3ncc(C(F)(F)F)nc3N(C)C(=O)[C@@H]2C1)Nc1cn[nH]c(=O)c1C(F)(F)F result="< 100 nM"

###

The reader will find reported IC50 values listed item by item below.
System: NCI-H1373 cells
Experiment: Cell proliferation inhibition assay (CTG method)
Type: cell-based, human
Conditions: Homo sapiens, NCI-H1373, 144 h, read-out: IC50 (nM) for NCI-H1373 cell viability
measured-endpoint: IC50

molecule="C[C@@H](COCCC(=O)N1CCN2c3ncc(C(F)(F)F)cc3NC(=O)[C@H]2C1)Nc1cn[nH]c(=O)c1C(F)(F)F [Compound 7]" target_or_system="NCI-H1373 cells" measured_endpoint=IC50 result="500 to 5000 nM"
molecule="CCN1C(=O)[C@@H]2CN(C(=O)CCOC[C@H](C)Nc3cn[nH]c(=O)c3C(F)(F)F)CCN2c2ncc(C(F)(F)F)cc21 [Compound 40]" target_or_system="NCI-H1373 cells" measured_endpoint=IC50 result="< 100 nM"
molecule="C[C@@H](COCCC(=O)N1CCN2c3ncc(C(F)(F)F)cc3N(C)C(=O)[C@H]2C1)Nc1cn[nH]c(=O)c1C(F)(F)F [Compound 54]" target_or_system="NCI-H1373 cells" measured_endpoint=IC50 result="< 100 nM"
molecule="[2H]C([2H])([2H])N1C(=O)[C@@H]2CN(C(=O)CCOC[C@H](C)Nc3cn[nH]c(=O)c3C(F)(F)F)CCN2c2ncc(C(F)(F)F)cc21 [Compound 39]" target_or_system="NCI-H1373 cells" measured_endpoint=IC50 result="< 100 nM"
molecule="C[C@@H](COCCC(=O)N1CCN2c3ncc(C(F)(F)F)cc3NC(=O)[C@@H]2C1)Nc1cn[nH]c(=O)c1C(F)(F)F [Compound 8]" target_or_system="NCI-H1373 cells" measured_endpoint=IC50 result="100 to 500 nM"
molecule="C[C@@H](COCCC(=O)N1CCN2c3ncc(C(F)(F)F)cc3N(C)C(=O)[C@@H]2C1)Nc1cn[nH]c(=O)c1C(F)(F)F [Compound 33]" target_or_system="NCI-H1373 cells" measured_endpoint=IC50 result="< 100 nM"

###

Tested on: NCI-H1373 cells
Assay: Cell proliferation inhibition assay (CTG method)
Type: cell-based, human
Conditions: Homo sapiens, NCI-H1373, 144 h, NCI-H1373 cells, 6 days incubation, CTG method; read-out: IC50 (nM) for NCI-H1373 cell viability
measured-endpoint: IC50

molecule=C[C@@H](COCCC(=O)N1CCN2c3ncc(C(F)(F)F)cc3C(=O)N(C)C[C@H]2C1)Nc1cn[nH]c(=O)c1C(F)(F)F result="500 to 5000 nM"
molecule=C[C@@H](COC[C@@H](F)C(=O)N1CCN2c3ncc(C(F)(F)F)cc3C=C[C@@H]2C1)Nc1cn[nH]c(=O)c1C(F)(F)F result="< 100 nM"
molecule=C[C@@H](COCCC(=O)N1CCN2c3ncc(C(F)(F)F)cc3OC[C@H]2C1)Nc1cn[nH]c(=O)c1C(F)(F)F result="< 100 nM"
molecule=Cc1nc2c(cc1C(F)(F)F)COC[C@H]1CN(C(=O)CCOC[C@H](C)Nc3cn[nH]c(=O)c3C(F)(F)F)CCN21 result="500 to 5000 nM"
molecule="CC(COCCC(=O)N1CCN2c3ncc(C(F)(F)F)cc3CN(C)C(=O)C2C1)Nc1cn[nH]c(=O)c1C(F)(F)F (stereo not drawn)" result="500 to 5000 nM"
molecule=C[C@@H](COCCC(=O)N1CCN2c3ncc(C(F)(F)F)cc3CSC[C@H]2C1)Nc1cn[nH]c(=O)c1C(F)(F)F result="< 100 nM"

###

Test system: NCI-H1373 cells
Test: Cell proliferation inhibition assay (CTG method)
Assay type: cell-based, human
Conditions: Homo sapiens, NCI-H1373, 144 h, NCI-H1373 cells, 6 days incubation, CTG method; read-out: IC50 (nM) for NCI-H1373 cell viability
IC50 overview
measured-endpoint: IC50

compound="C[C@@H](COCCC(=O)N1CCN2c3ncc(C(F)(F)F)cc3CN(C)C[C@H]2C1)Nc1cn[nH]c(=O)c1C(F)(F)F [Compound 23]" result="100 to 500 nM"
compound="C[C@@H](COCCC(=O)N1CCN2c3ncc(C(F)(F)F)nc3OCC[C@H]2C1)Nc1cn[nH]c(=O)c1C(F)(F)F [Compound 47]" result="< 100 nM"
compound="C[C@@H](COCCC(=O)N1CCN2c3ncc(C(F)(F)F)cc3C(O)CC2C1)Nc1cn[nH]c(=O)c1C(F)(F)F (some centres unmarked) [Compound 38]" result="100 to 500 nM"
compound="C[C@@H](COCCC(=O)N1CCN2c3ncc(C(F)(F)F)c(C(F)F)c3OCC[C@H]2C1)Nc1cn[nH]c(=O)c1C(F)(F)F [Compound 62]" result="100 to 500 nM"
compound="C[C@@H](COCCC(=O)N1CCN2c3ncc(C(F)(F)F)nc3OC[C@H]2C1)Nc1cn[nH]c(=O)c1C(F)(F)F [Compound 14]" result="100 to 500 nM"
compound="C[C@@H]1CN2c3ncc(C(F)(F)F)cc3OC[C@H]2CN1C(=O)CCOC[C@H](C)Nc1cn[nH]c(=O)c1C(F)(F)F [Compound 24]" result="100 to 500 nM"
compound="C[C@@H](COC[C@H](F)C(=O)N1CCN2c3ncc(C(F)(F)F)cc3C=C[C@@H]2C1)Nc1cn[nH]c(=O)c1C(F)(F)F [Compound 74]" result="< 100 nM"
compound="C[C@@H](COCCC(=O)N1CCN2c3ncc(C(F)(F)F)cc3NC(=O)CC2C1)Nc1cn[nH]c(=O)c1C(F)(F)F (single isomer, unassigned) [Compound 84]" result="> 5000 nM"
